# testTarget: T1, PTPRG, endogenous in H929 multiple myeloma cells (human, UniProt P23470 20-1445)
# T1 construct: Native protein on H929 cells (flow cytometry, siRNA knockdown) and in H929 lysates (IP/MS); also called phosphatase receptor type γ
# T1 sequence (P23470 20-1445 limits assumed): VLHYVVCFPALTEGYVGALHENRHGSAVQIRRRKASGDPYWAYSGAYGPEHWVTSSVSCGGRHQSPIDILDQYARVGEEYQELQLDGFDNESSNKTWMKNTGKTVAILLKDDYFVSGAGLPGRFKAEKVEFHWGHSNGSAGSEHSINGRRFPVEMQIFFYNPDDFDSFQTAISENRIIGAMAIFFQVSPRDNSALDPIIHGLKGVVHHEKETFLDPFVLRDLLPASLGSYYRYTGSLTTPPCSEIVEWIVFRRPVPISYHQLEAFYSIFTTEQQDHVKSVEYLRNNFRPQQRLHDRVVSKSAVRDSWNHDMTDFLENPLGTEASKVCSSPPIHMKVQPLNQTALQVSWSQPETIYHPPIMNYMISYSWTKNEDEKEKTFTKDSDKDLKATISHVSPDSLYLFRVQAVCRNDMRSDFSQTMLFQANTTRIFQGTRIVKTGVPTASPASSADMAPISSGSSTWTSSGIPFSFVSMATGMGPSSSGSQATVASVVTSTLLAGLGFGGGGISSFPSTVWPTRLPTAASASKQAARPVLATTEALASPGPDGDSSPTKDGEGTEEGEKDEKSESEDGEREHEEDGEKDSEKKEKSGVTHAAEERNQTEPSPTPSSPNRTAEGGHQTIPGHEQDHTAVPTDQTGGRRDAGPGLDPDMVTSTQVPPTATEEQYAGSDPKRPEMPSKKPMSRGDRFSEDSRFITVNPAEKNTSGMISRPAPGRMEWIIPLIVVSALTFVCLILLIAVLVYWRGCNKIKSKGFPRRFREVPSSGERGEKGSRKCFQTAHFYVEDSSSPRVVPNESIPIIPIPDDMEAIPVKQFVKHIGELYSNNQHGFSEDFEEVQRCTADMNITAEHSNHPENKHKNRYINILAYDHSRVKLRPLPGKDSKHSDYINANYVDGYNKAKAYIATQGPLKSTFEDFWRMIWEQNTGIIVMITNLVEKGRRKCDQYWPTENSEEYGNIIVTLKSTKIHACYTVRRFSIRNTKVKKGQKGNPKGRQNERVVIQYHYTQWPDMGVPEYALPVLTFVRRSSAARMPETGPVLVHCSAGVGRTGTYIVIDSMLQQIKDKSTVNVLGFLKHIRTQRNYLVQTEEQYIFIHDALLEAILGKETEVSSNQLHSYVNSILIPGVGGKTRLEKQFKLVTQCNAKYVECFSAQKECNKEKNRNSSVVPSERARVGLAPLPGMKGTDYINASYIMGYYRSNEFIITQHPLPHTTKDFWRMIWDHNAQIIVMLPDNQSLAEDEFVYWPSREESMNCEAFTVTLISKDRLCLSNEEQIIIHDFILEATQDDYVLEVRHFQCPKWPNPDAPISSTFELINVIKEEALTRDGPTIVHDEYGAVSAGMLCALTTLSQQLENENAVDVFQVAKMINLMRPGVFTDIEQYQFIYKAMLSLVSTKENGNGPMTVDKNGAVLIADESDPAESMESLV
# procedureDetails: flow cytometry, H929 + CADM1 siRNA; None 0.89
testReadout: Cells stained (%)
Numbers only, in %.

The examples below pair each entry with its known result.
binder	unitOfMeasure	Cells stained (%)
HW-17 chimeric rabbit-human IgG1 LA/LA/PG (antibody, V domains shown, Fc-silenced (L234A/L235A/P329G) IgG1, lambda; Alexa Fluor 647-labeled in single-step flow cytometry; Cluster C-1) VH: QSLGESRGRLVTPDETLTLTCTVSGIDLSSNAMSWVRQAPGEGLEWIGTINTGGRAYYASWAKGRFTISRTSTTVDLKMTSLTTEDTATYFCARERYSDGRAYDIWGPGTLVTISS VL: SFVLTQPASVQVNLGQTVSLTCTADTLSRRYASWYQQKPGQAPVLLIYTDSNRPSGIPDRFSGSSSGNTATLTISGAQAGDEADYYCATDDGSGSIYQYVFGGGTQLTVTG	%	99.3
HW-42 chimeric rabbit-human IgG1 LA/LA/PG (antibody, V domains shown, Fc-silenced (L234A/L235A/P329G) IgG1, lambda; Alexa Fluor 647-labeled in single-step flow cytometry; Cluster C-1) VH: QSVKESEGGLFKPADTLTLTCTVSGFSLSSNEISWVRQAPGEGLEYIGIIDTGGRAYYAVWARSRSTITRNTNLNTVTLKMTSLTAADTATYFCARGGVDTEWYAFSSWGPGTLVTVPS VL: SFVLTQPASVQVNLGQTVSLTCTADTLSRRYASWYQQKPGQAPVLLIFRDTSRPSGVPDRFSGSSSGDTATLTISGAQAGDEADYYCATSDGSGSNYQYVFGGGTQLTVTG	%	97.3

Now look at this entry.
For the binder shown here, HW-25 chimeric rabbit-human IgG1 LA/LA/PG (antibody, V domains shown, Fc-silenced (L234A/L235A/P329G) IgG1, lambda; Alexa Fluor 647-labeled in single-step flow cytometry; Cluster C-1) VH: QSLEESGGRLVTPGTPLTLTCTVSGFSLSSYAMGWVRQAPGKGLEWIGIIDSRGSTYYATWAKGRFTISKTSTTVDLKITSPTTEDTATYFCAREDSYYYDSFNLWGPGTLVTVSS VL: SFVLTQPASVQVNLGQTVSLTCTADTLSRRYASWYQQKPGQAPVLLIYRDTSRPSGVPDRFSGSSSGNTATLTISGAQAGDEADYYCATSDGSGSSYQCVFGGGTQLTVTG , give the reported Cells stained (%). 97.7
